Item-by-item account of melting point

q: Would you kindly share the measured melting point for "O=C(F)[C@@H]1C[C@H](F)CN1C(=O)OCC1c2ccccc2-c2ccccc21" ?
a: 127 to 128 °C

Others:
q: GET /values?readout=melting point&item= COc1cc(C)c(NS(C)(=O)=O)cc1C(=O)NCC1CCCO1 (stereo not given)
a: 207 to 208 °C

q: # query: melting point of entry "CC(C)(C)OC(=O)CN1CCN(CC(=O)OC(C)(C)C)C1=O"
a: 100 to 102 °C

q: So what's the measured melting point for this one? "CC1(C)Oc2ccc(OC(F)(F)F)cc2[C@@H](NC(=O)c2ccc(C(F)(F)F)cc2[N+](=O)[O-])[C@@H]1O"
a: 60 to 65 °C

q: Suppose we examine the compound "Cc1cc(O)nc2cc(Br)ccc12" ; what melting point value has been reported?
a: 275 to 276 °C

q: What value of melting point has been recorded for this entry: Cc1cccc(NC(=O)NCC(=O)N2C(Cc3ccccc3)SC[C@H]2C(=O)OC(C)(C)C)c1 (stereo not given in full)
a: 104 °C

q: Give the measured melting point of "COC(=Cc1ccc(-c2cccc(N(C)C(=O)NC3CCCCC3)c2)cc1)C(=O)O" .
a: 192 °C

q: Name the reported melting point value associated with the compound "CCc1nc2c(N)nc3cc(CCCN)ccc3c2n1CC1CCOCC1"
a: 217 to 220 °C

q: Recorded melting point for "O=C(c1ccc2cc(Cl)ccc2c1)C1CCNCC1" , please?
a: 98 to 100 °C

q: Item "CCN(CC)CCNc1ccc(CNS(C)(=O)=O)c2sc3ccc(Br)cc3c(=O)c12" has what recorded melting point?
a: 134 to 139 °C

---

# melting point per entry

Some solved cases for reference:
q: Fill in: melting point of "CC(C)(C)c1cc(C2N(c3ccccc3)CCN2c2ccccc2)cc(C(C)(C)C)c1O" is ___
a: 144 °C

q: If you can, please state the reported melting point value of "CCNC(=O)c1c([Si](C)(C)C)ccc(C(F)F)c1Cl" .
a: 120 to 121 °C

q: # query: melting point of entry "CC(C)(C)OC(=O)NCc1ccc(C(=O)NNC(=O)OCc2ccccc2)cc1"
a: 160 to 162 °C

q: For the compound shown here, COC12CC(c3nnc(-c4cncc(Br)c4)o3)CN(C)C1Cc1cn(C)c3cccc2c13 (stereo unspecified) , give the reported melting point.
a: 183 to 186 °C

q: So what's the measured melting point for this one? CC(=O)OC1CCCCC1n1c(Br)nc2cc(Cl)c(Cl)cc21 (stereo unspecified)
a: 167 to 169 °C

Would you kindly look at the next entry?
q: So what's the measured melting point for this one? "Cc1cccc(Cn2nnc(C(N)=O)c2N)c1"
a: 200 to 202 °C

---

test readout: melting point

Use these answered entries as a reference point.
q: Form field: reported melting point of CN1c2cccc(CC(=O)O)c2Sc2c(C(N)C(=O)OCC3c4ccccc4-c4ccccc43)cccc21 (stereo not given)
a: 217 to 219 °C

q: Dear colleague, I am looking for the recorded melting point of the following compound: CC(Cc1c[nH]c2ccccc12)(NC(=O)OC(CF)C(F)F)C(=O)NCCc1ccccn1 (stereo not given)
a: 65 to 67 °C

q: # get_value(readout='melting point', item= "Cc1c(C)c(Cl)c(C(=O)c2ccccc2)c(C)c1Cl" )
a: 105 to 107 °C

q: I have this compound here, "COc1cc(/C=C/c2nc3ccccc3c(=O)o2)ccc1OC(C)=O" , and I need its recorded melting point.
a: 185 to 186 °C

q: Value lookup for melting point; key = O=C(NCCOc1ccc(CC(Oc2ccccc2)C(=O)O)cc1)c1ccc(-c2ccc(F)cc2)cc1 (stereo not given)
a: 195 to 196 °C

More entries:
q: Which measured melting point value corresponds to O=C1CCCC(C(Sc2ccccc2)c2ccccc2)O1 (stereo not given) ?
a: 82 to 84 °C

q: Query (compound): "O=C1OC(=O)c2c1cccc2-c1ccccc1" ; field requested: melting point
a: 148 to 149 °C

q: Any idea what its melting point is? The compound is "CCOC(=O)c1c(C(F)(F)F)nc(C(F)F)c(C(=O)O)c1N"
a: 142 to 151 °C

q: Which melting point is listed for "COC(=O)NCc1ccc(Br)cc1F" ?
a: 66 to 67.5 °C

q: Form field: reported melting point of "CNC(=N[N+](=O)[O-])N(Cc1ccc(Cl)nc1)C(C)=O"
a: 124 to 125 °C
